Target or system Cholinesterase (Equus caballus, UniProt P81908): recorded log10(IC50) listed per item.
Reminder: these figures are log10 of reported IC50, in µM before transformation.

// known answers, use as guide
Prompt line: Which log10(IC50) reading was recorded for the compound `COc1cc(CNCCCCCCCCNCc2cc(OC)c3c(c2)OCO3)cc2c1OCO2` ?
Response line: 0.49

Prompt line: Same lookup for `COc1cc(CNCCCCCCCCCNCc2cc(OC)c3c(c2)OCO3)cc2c1OCO2` , please.
Response line: 0.71

Prompt line: Similarly, `COc1cc(CNCCCCNCc2cc(OC)c3c(c2)OCO3)cc2c1OCO2` ?
Response line: 1.08

---
Prompt line: Form field: reported log10(IC50) of `COc1cc(CNCCCCCCCNCc2cc(OC)c3c(c2)OCO3)cc2c1OCO2`
Response line: 0.48

Prompt line: What about this compound? `COc1cc(CNCCCCCCNCc2cc(OC)c3c(c2)OCO3)cc2c1OCO2`
Response line: 0.32

Prompt line: Same question for `COc1cc(CNCCCCCNCc2cc(OC)c3c(c2)OCO3)cc2c1OCO2` please.
Response line: 0.53

Prompt line: Now try `COc1cc(CNCCCNCc2cc(OC)c3c(c2)OCO3)cc2c1OCO2` .
Response line: 1.72
